# study.system: mouse TLR7 (Mus musculus, UniProt P58681)
# Sequence (P58681 27-1050): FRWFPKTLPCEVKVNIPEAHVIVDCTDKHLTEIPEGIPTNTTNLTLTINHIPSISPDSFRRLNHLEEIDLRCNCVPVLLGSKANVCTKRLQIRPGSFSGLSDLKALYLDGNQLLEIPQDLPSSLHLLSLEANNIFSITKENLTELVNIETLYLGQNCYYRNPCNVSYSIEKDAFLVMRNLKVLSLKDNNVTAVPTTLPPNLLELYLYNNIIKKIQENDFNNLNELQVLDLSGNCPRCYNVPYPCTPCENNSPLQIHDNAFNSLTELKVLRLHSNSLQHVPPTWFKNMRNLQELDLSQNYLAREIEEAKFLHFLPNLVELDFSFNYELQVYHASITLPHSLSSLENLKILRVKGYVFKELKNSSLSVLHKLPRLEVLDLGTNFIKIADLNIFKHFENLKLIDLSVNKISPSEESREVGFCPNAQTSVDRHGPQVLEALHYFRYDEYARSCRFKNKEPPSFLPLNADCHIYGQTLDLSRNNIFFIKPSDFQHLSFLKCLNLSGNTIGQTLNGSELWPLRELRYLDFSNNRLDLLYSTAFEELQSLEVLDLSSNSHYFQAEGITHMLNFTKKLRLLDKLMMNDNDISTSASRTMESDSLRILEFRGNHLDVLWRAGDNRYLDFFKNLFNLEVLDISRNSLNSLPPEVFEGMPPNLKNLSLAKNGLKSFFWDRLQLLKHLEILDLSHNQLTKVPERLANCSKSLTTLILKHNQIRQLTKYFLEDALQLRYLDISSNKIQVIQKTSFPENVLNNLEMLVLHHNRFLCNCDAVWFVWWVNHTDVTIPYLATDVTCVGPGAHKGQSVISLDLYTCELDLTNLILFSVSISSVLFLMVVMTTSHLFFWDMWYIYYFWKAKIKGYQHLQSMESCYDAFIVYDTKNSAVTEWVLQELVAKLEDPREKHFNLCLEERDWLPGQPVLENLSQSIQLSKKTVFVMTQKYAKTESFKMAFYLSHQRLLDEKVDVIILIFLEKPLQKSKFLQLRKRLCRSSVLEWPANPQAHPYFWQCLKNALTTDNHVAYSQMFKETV
# assay.details: Short-term in vivo (STIV) assay: oral dosing, R848 s.c., plasma IL-6
# Parameters: female BALB/c mice (Jackson Labs, Bar Harbor, Me.) were dosed by oral gavage; tissue Jackson Labs; host or cells: living female BALB/c mice; plasma IL-6 after s.c. R848
# experimental.context: 6 h; 100 mg/kg
measured.attribute: % Suppression vs. Vehicle (%)
Numbers only, in %.

// known answers, use as guide
Input: Please give the measured % Suppression vs. Vehicle for this compound: CC1CN(c2ccc(C#N)c3ncccc23)CC(CN2CCC(N(C)C)CC2)O1 (centres unmarked)
Output: 99

Input: Form field: reported % Suppression vs. Vehicle of `C[C@@H]1CN(c2ccc(C#N)c3ncccc23)C[C@H](CN2CCC(N3CCCCC3)CC2)O1`
Output: 100

Input: Can you look up the measured % Suppression vs. Vehicle of `C[C@@H]1CN(c2ccc(C#N)c3ncccc23)C[C@H](C(=O)N(C)[C@@H]2CCCNC2)O1` for me?
Output: 79

Input: For `CC(C)C(=O)NC1CN(C[C@H]2CN(c3ccc(C#N)c4ncccc34)C[C@@H](C)O2)C1` , what is its reported % Suppression vs. Vehicle?
Output: 98

Input: // query % Suppression vs. Vehicle value for entry `C[C@@H]1CN(c2ccc(C#N)c3ncccc23)C[C@H](CN2CCC(N3CCCC3)CC2)O1`
Output: 100

Input: What does the data say about its % Suppression vs. Vehicle? Entry: CC(=O)NC1CCN(CC2CN(c3ccc(C#N)c4ncccc34)CC(C)O2)CC1 (centres unmarked)
Output: 99

Input: Give the measured % Suppression vs. Vehicle of CC1CN(c2ccc(C#N)c3ncccc23)CC(CN2CCC(NC(=O)C(C)C)CC2)O1 (centres unmarked) .
Output: 84

Input: So what's the measured % Suppression vs. Vehicle for this one? CC1CN(c2ccc(C#N)c3ncccc23)CC(CN2CCNC(C)C2C)O1 (centres unmarked)
Output: 100

Provide % Suppression vs. Vehicle values for the following items, in order.
1. CC1CN(c2ccc(C#N)c3ncccc23)CC(C(=O)N2CCC3(CCNCC3)CC2)O1 (centres unmarked)
2. CC1CN(c2ccc(C#N)c3ncccc23)CC(C(=O)NC2CCCN(C)C2)O1 (centres unmarked)
3. CC(C)N1CCN(C[C@H]2CN(c3ccc(C#N)c4ncccc34)C[C@@H](C)O2)CC1
4. CC1CN(c2ccc(C#N)c3ncccc23)CC(C(=O)NC2C3CNCC32)O1 (centres unmarked)
5. CC1CN(c2ccc(C#N)c3ncccc23)CC(CN2CCN(C)CC2C)O1 (centres unmarked)
6. CC1CN(c2ccc(C#N)c3ncccc23)CC(CN2CCC(NC(=O)c3ccccc3)CC2)O1 (centres unmarked)

Output:
[43, 10, 100, 19, 100, 100]

Parameter requested: % Suppression vs. Vehicle. Apply to each item below.
1. CCCN1CCN(C[C@H]2CN(c3ccc(C#N)c4ncccc34)C[C@@H](C)O2)CC1
2. C[C@@H]1CN(c2ccc(C#N)c3ncccc23)C[C@H](CN2CC[C@H](O)C2)O1
3. CC1CN(c2ccc(C#N)c3ncccc23)CC(CN2CCC(N3CCOCC3)CC2)O1 (centres unmarked)

Output:
1. 99
2. 96
3. 95

====

# study.system: UniProtKB P58681
# assay.details: HEK-293 mouse TLR7 NF-kappaB luciferase reporter assay (CL097)
# Type: cell-based
# experimental.context: HEK-mTLR7, average of three tests, read-out: IC50 average
measured.attribute: IC50 (µM)
Numbers only, in µM.

Input: Need IC50, item CCN(CCO)CCCC(C)Nc1ccnc2cc(Cl)ccc12 (stereo not shown) [HCQ, hydroxychloroquine, reference compound]
Output: 14.1
